All values here come from PubChem BioAssay (EPA / NIEHS).

# test.protocol: BSK_3C_Vis: BioMAP Diversity Plus: 3C Assay for Morphology Visualization (AID 2283025);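 further: fitted both ways so gain or loss versus DMSO counts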
# test.context: primary human endothelial cells (HUVEC)
Activity calls are given as the source filed them. How the source made its calls: active means hit-call score of the fitted dose curve at least 0.9, where 1 is the maximum; inactive means score below 0.9.
Bench note: report the call from active, inactive

Q. Answer briefly: the call reported for N#Cc1cc(Br)c(O)c(Br)c1 in this assay.
A. inactive

Q. Entry to check: Cc1c(F)c(F)c(COC(=O)C2C(/C=C(\Cl)C(F)(F)F)C2(C)C)c(F)c1F (configuration not stated)
A. active

Q. Entry to check: CS/C(C)=N/OC(=O)N(C)SN(C)C(=O)O/N=C(\C)SC
A. active

Q. Entry to check: CCNc1nc(Cl)nc(NCC)n1
A. inactive

More entries:
Q. Answer briefly: the call reported for CC(Oc1ccc(Cl)cc1Cl)C(=O)O (configuration not stated) in this assay.
A. inactive

Q. Entry to check: N#CC(CCc1ccc(Cl)cc1)(Cn1cncn1)c1ccccc1 (configuration not stated)
A. active

Q. Entry to check: COc1nc(NC(C)C)nc(NC(C)C)n1
A. inactive

Q. Entry to check: CCCCNC(=O)n1c(NC(=O)OC)nc2ccccc21
A. active

Q. Entry to check: CCOP(=S)(OCC)SCn1c(=O)oc2cc(Cl)ccc21
A. active

Q. Entry to check: CNC(=O)ON=CC(C)(C)SC
A. inactive

Q. Entry to check: CC1COC(Cn2cncn2)(c2ccc(Oc3ccc(Cl)cc3)cc2Cl)O1 (configuration not stated)
A. active

Q. Entry to check: O=C(Nc1ccccc1)Nc1ccnc(Cl)c1
A. inactive

###

# Read-out: Apolipoprotein A-V (APOA5) gene, APOA5 (gene 116519)
# test.protocol: LTEA_HepaRG_APOA5: Life Technologies and Expression Analysis (LTEA) Assay for Apolipoprotein A-V (APOA5) gene using HepaRG (AID 2283474)
# test.context: mRNA level, 48 h; actives raise or lower the signal
Calls of active or inactive are those of the source. How the source made its calls: active means hit-call score of the fitted dose curve at least 0.9, where 1 is the maximum; inactive means score below 0.9.
property.name: AC50

These recorded examples may help you get a feel for the data.
Q. Entry Oc1ccccc1-c1ccccc1 has what AC50?
A. inactive

Q. Entry to check: N#Cc1cc(Br)c(O)c(Br)c1
A. 21.2 µM (active)

Q. Entry to check: CCCN(CCC)c1c([N+](=O)[O-])cc(S(N)(=O)=O)cc1[N+](=O)[O-]
A. inactive

Q. Entry to check: OC(c1ccc(Cl)cc1)(c1cncnc1)c1ccccc1Cl (configuration not stated)
A. 72.9 µM (active)

Q. Entry to check: CNC(=O)ON=CC(C)(C)SC
A. inactive

More entries:
Q. Entry CCCC1COC(Cn2cncn2)(c2ccc(Cl)cc2Cl)O1 (configuration not stated) has what AC50?
A. 47.4 µM (active)

Q. Entry to check: COC(=O)N(OC)c1ccccc1COc1ccn(-c2ccc(Cl)cc2)n1
A. 3.56 µM (active)

###

# test.protocol: Tanguay_ZF_120hpf_NC_legacy: (Legacy) Oregon State University Tanguay Lab 120 Hour Post-fertilization zebrafish Assay for Notochord and Tail Malformation (AID 2283656)
Records with an inconclusive call do not appear. Calls of active or inactive are those of the source. The calls were made as follows: active = hit-call score of the fitted dose curve at least 0.9, where 1 is the maximum; inconclusive = response in the unintended direction; inactive = score below 0.9.
Bench note: report the call from Yes (active), No (inactive)

Q. Answer briefly: the call reported for CCCCNC(=O)n1c(NC(=O)OC)nc2ccccc21 in this assay.
A. No

Q. Entry to check: Cc1c(F)c(F)c(COC(=O)C2C(/C=C(\Cl)C(F)(F)F)C2(C)C)c(F)c1F (stereo not given)
A. No

Q. Entry to check: Cc1ccc(-c2c(Cl)nc(C#N)n2S(=O)(=O)N(C)C)cc1
A. No

More entries:
Q. Answer briefly: the call reported for CCOC(=O)CC(SP(=S)(OC)OC)C(=O)OCC (stereo not given) in this assay.
A. No

Q. Entry to check: CC(C)C1(C)N=C(c2nc3ccccc3cc2C(=O)O)NC1=O (stereo not given)
A. No

Q. Entry to check: CC1=C(C(=O)Nc2ccccc2)SCCO1
A. No

Q. Entry to check: CCCN(CCC)c1c([N+](=O)[O-])cc(S(N)(=O)=O)cc1[N+](=O)[O-]
A. No

Q. Entry to check: CS/C(C)=N/OC(=O)N(C)SN(C)C(=O)O/N=C(\C)SC
A. Yes

Q. Entry to check: CON(C)C(=O)Nc1ccc(Cl)c(Cl)c1
A. No

Q. Entry to check: CCCC1COC(Cn2cncn2)(c2ccc(Cl)cc2Cl)O1 (stereo not given)
A. No
